src = ChEMBL document CHEMBL1159005

# Test system: Moloney murine leukemia virus
# procedureText: Inhibition of Moloney murine leukemia virus reverse transcriptase using (riboadenylic acid)n(deoxythymidylic acid)12-18 as template primer by liquid scintillation counting
observedProperty: ID50 (nM)
Only the number, expressed in nM, is required.

Some solved entries appear below for comparison.
compound	resultValue
O=c1c(O)c(-c2ccc(O)c(O)c2)oc2cc(O)cc(O)c12	200
O=c1c(O)c(-c2ccc(O)cc2O)oc2cc(O)cc(O)c12	1030

Field: next compound
Give Moloney murine leukemia virus ID50 for O=C1c2c(O)cc(O)cc2OC(c2ccc(O)c(O)c2)C1O (racemic)
2430

---

This listing pairs compounds with measured ID50.
# System: Moloney murine leukemia virus
# procedureText: Inhibition of Moloney murine leukemia virus reverse transcriptase using (riboadenylic acid)n(deoxythymidylic acid)12-18 as template primer by liquid scintillation counting
The reply should contain only the number, in µM.

These solved cases illustrate the format of a correct answer.
smilesRepresentation	ID50 / µM
C[C@H]1O[C@@H](Oc2c(-c3cc(O)c(O)c(O)c3)oc3cc(O)cc(O)c3c2=O)[C@@H](O)[C@@H](O)[C@@H]1O	10.1
O=c1c(O)c(-c2ccc(O)c(O)c2)oc2cc(O)ccc12	0.28
O=c1c(O)c(-c2ccc(O)cc2)oc2cc(O)cc(O)c12	1.22

Fill in the blank: the reported ID50 of COc1ccc([C@@H]2CC(=O)c3c(O)cc(O)cc3O2)cc1O is ____.
20.9

---

# Test system: Moloney murine leukemia virus
# procedureText: Inhibition of Moloney murine leukemia virus reverse transcriptase using (ribocytidylic acid)n(deoxyguanylic acid)12-18 as template primer by liquid scintillation counting
Label Met when ID50 < 1000 nM; otherwise Not met.

Example entries begin here.
compound	groupLabel
O=c1c(O)c(-c2ccc(O)c(O)c2)oc2cc(O)ccc12	Met
Oc1cc(O)c2c(c1)O[C@H](c1ccc(O)c(O)c1)[C@@H](O)C2	Not met
C[C@@H]1O[C@@H](OC[C@H]2O[C@@H](Oc3c(-c4ccc(O)c(O)c4)oc4cc(O)cc(O)c4c3=O)[C@H](O)[C@@H](O)[C@@H]2O)[C@H](O)[C@H](O)[C@H]1O	Not met
Oc1cc(O)c2c(c1)O[C@H](c1ccc(O)c(O)c1)[C@H](O)C2	Not met
O=c1c(O)c(-c2cc(O)c(O)c(O)c2)oc2cc(O)cc(O)c12	Met

Now let's try a different one.
Lab log: compare recorded ID50 with 1000 nM; is it strictly lower for O=c1c(O)c(-c2ccccc2)oc2ccccc12 ?
Not met

---

Catalogue of ID50 readings, one per entry.
# Test system: Moloney murine leukemia virus
# procedureText: Inhibition of Moloney murine leukemia virus reverse transcriptase using (ribocytidylic acid)n(deoxyguanylic acid)12-18 as template primer by liquid scintillation counting
All answers are understood in µM, so give the number only.

// worked examples, ID50 included
compound	observedProperty	measureUnit	resultValue
COc1ccc([C@@H]2CC(=O)c3c(O)cc(O)cc3O2)cc1O	ID50	µM	22.1
O=c1c(O)c(-c2ccc(O)cc2O)oc2cc(O)cc(O)c12	ID50	µM	1.01
O=c1c(O)c(-c2ccc(O)c(O)c2)oc2cc(O)cc(O)c12	ID50	µM	0.17
C[C@H]1O[C@@H](Oc2c(-c3cc(O)c(O)c(O)c3)oc3cc(O)cc(O)c3c2=O)[C@@H](O)[C@@H](O)[C@@H]1O	ID50	µM	9.69
O=C1c2c(O)cc(O)cc2OC(c2ccc(O)c(O)c2)C1O (racemic)	ID50	µM	2.46

Please find the next compound below.
Consider the compound O=c1c(O)c(-c2ccc(O)cc2)oc2cc(O)cc(O)c12 and give its measured ID50.
1.29
